Target: Beta-secretase 1 (Homo sapiens, UniProt P56817)
Sequence (P56817 whole entry): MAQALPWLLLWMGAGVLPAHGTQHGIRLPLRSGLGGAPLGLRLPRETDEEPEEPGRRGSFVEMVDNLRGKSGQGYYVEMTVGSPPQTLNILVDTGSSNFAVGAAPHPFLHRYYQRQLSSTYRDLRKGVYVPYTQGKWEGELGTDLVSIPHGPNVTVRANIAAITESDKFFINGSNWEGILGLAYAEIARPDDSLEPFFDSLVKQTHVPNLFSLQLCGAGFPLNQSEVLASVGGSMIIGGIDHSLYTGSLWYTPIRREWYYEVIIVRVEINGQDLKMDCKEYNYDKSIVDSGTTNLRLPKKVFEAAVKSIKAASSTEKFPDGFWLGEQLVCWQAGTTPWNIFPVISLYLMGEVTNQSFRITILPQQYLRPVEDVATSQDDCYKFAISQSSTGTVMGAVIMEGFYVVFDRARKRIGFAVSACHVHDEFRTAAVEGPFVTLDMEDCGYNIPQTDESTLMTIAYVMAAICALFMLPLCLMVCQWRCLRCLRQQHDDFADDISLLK
Assay: Inhibition of BACE1 at 0.2 uM
property label: inhibition (%)
Write the value in % as a bare number.

Look over these answered cases.
1) CC(C)C[C@H](NC(=O)[C@@H](NC(=O)[C@@H](N)CCC(=O)O)C(C)C)C(=O)N[C@@H](Cc1ccccc1)[C@@H](O)C(=O)Nc1cccc(-c2n[nH]c(=S)o2)c1	72.3
2) CC(C)C[C@H](NC(=O)[C@@H](NC(=O)[C@@H](N)CNC(=O)c1nn[nH]n1)C(C)C)C(=O)N[C@@H](Cc1ccccc1)[C@@H](O)C(=O)Nc1cccc(-c2noc(S)n2)c1	97.2

Then this molecule:
Lab note: `CC(C)C[C@H](NC(=O)[C@@H](NC(=O)[C@@H](N)CNC(=O)c1nn[nH]n1)C(C)C)C(=O)N[C@@H](Cc1ccccc1)[C@@H](O)C(=O)Nc1cccc(C(N)=O)c1` gave inhibition of 78.1
